Below, each entry is listed alongside its reported growth.
system: A549/ATCC NSCLC; experiment: NCI-60 one-dose screen, 48 h (100 = growth as untreated, 0 = no growth, -100 = all killed); conditions: 10 µM unless noted
Compounds without any hit were thinned out: in the full panel of roughly 83,000, 20% have a hit.
Report the figure in % without appending any unit label.

- compound: "Cc1nnc(NC(=O)c2nc(S(=O)(=O)Cc3ccc(F)cc3)ncc2Cl)s1"
  study-system: "A549/ATCC NSCLC"
  unit-tag: "%"
  growth: 79.3
- compound: "O=C1/C(=C/c2ccc(F)cc2)COc2ccc(O)c(O)c21"
  study-system: "A549/ATCC NSCLC"
  unit-tag: "%"
  growth: 47.4
- compound: "CC(=O)Cc1nsc(NC(=O)c2cc(-c3cc(Cl)cc(Cl)c3)oc2C)n1"
  study-system: "A549/ATCC NSCLC"
  unit-tag: "%"
  growth: 94.3
- compound: "C[C@@H]1CCC[C@H]1CC(N)C(=O)O (some centres not stated)"
  study-system: "A549/ATCC NSCLC"
  unit-tag: "%"
  growth: 110
- compound: "O=C(Cn1cc(CN2CCCCCC2)nn1)Nc1ccc2c(ccn2Cc2ccccc2)c1"
  study-system: "A549/ATCC NSCLC"
  unit-tag: "%"
  growth: 92.3
- compound: "COc1cc(NC(C)CCCNC(C)C)c2ncccc2c1OC (configuration not stated)"
  study-system: "A549/ATCC NSCLC"
  unit-tag: "%"
  growth: 102

Now for another entry.
Value lookup for growth; key = COc1ccc2c(c1)c(-c1noc(C(=O)c3cn(C)c4ccc(Br)cc34)n1)cn2C
84.5
